Taken from patent US20240247080A1.

targetSystem: human GLP-1 receptor (human, UniProt P43220 24-463)
experimentNotes: cell-based or functional assay
Starred links: 1 amine or outer side, 2 acyl side, 3 side chain; linkers in the order of their positions; H or OH if unused. Non-standard residues stand in square brackets, D forms with d. Groups on a side chain read outwards from the residue. No end group written: not given here. *: point of attachment. C18 diacid = O=C(O)CCCCCCCCCCCCCCCCC(=O)*; γGlu = O=C(O)[C@H](CCC(=O)[*:2])N[*:1]; AEEA = NCCOCCOCC(=O)O; Aib = CC(C)(N)C(=O)O
Kindly state EC50 CreLuc hGLP1R 100% hP for each of the entries shown.

Prompt: Any idea what EC50 CreLuc hGLP1R 100% hP was measured for Y[Aib]EGTFTSDYSI[Aib]LEKQAE[Aib]AFVQWLIK([AEEA-AEEA-γGlu-γGlu-γGlu-γGlu-C18 diacid])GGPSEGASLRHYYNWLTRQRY-NH2 [Compound 156] ?
Completion: 6.5 nM

Prompt: Any idea what EC50 CreLuc hGLP1R 100% hP was measured for YXEGTFTSDYSIXLEKQAQXAFVQWLIKGGPSEPASLRHYYNWLTRQRY (Aib at 2, 13, 20; K28 side chain: C20DA-gGlu-gGlu-gGlu-gGlu-gGlu-OEG-OEG; C-terminal NH2) [Compound 111] ?
Completion: 5.32 nM

Prompt: Any idea what EC50 CreLuc hGLP1R 100% hP was measured for YXEGTFTSDYSIXLEKQAQXAFVEWLIKGGPSEYESLRHYYNWLTRQRY (Aib at 2, 13, 20; K28 side chain: C20DA-gGlu-gGlu-gGlu-gGlu-gGlu-gGlu-eLys; C-terminal NH2) [Compound 93] ?
Completion: 8.97 nM
